System: Cryptococcus neoformans
TEST: Antifungal activity against Cryptococcus neoformans ATCC 32264 assessed as inhibition of fungal growth at 25 uM after 48 hrs by microbroth dilution method
Format: functional
MEASUREMENT CONTEXT: ATCC 32264, 48 h
Entries and their measured inhibition at 25 µM follow.
RECORDED METRIC: inhibition at 25 µM (%)

> print(dat)
           substance      recorded.metric  unit.of.measure  measured.result
1     H-NRRMKWKK-NH2  inhibition at 25 µM                %             6.71
2  H-RQIRRWWQWRR-NH2  inhibition at 25 µM                %              100
3    H-RQIRRWWQW-NH2  inhibition at 25 µM                %              100
4  H-RQWKKWWQWRR-NH2  inhibition at 25 µM                %              100

----------
System: Candida albicans
TEST: Antifungal activity against Candida albicans ATCC 10231 assessed as inhibition of fungal growth at 50 uM after 24 hrs by microbroth dilution method
Format: functional
MEASUREMENT CONTEXT: ATCC 10231, 24 h
Entries and their measured inhibition at 50 µM follow.
RECORDED METRIC: inhibition at 50 µM (%)

> print(dat)
           substance      recorded.metric  measured.result
1     H-NRRMKWKK-NH2  inhibition at 50 µM                0
2    H-RQIRRWWQW-NH2  inhibition at 50 µM              100
3  H-RQWKKWWQWRR-NH2  inhibition at 50 µM              100
4  H-RQIRRWWQWRR-NH2  inhibition at 50 µM              100

----------
TEST: Toxicity in Poecilia reticulata assessed as mortality at 13.6 ug/ml after 96 hrs
Format: organism-based
MEASUREMENT CONTEXT: in vivo, read-out: Activity
RECORDED METRIC: mortality at 96 h, 13.6 ug/ml

> print(dat)
           substance                recorded.metric  measured.result
1  H-RQIRRWWQWRR-NH2  mortality at 96 h, 13.6 ug/ml               0%

----------
TEST: Toxicity in Poecilia reticulata assessed as mortality at 16.4 ug/ml after 24 hrs
Format: organism-based
MEASUREMENT CONTEXT: in vivo, read-out: Activity
RECORDED METRIC: mortality at 24 h, 16.4 ug/ml (%)

> print(dat)
         substance  measured.result
1  H-RQIRRWWQW-NH2                0

----------
TEST: Toxicity in Poecilia reticulata assessed as mortality at 13.6 ug/ml after 72 hrs
Type: organism-based
MEASUREMENT CONTEXT: in vivo, read-out: Activity
RECORDED METRIC: mortality at 72 h, 13.6 ug/ml

> print(dat)
           substance                recorded.metric  measured.result
1  H-RQIRRWWQWRR-NH2  mortality at 72 h, 13.6 ug/ml               0%

These data points were gathered from ChEMBL document CHEMBL1157699.
